- EXPERIMENT_NOTES: in vitro
- TEST_SETTINGS: human, uninfected MT-4 cells, CC50 (nM), same protocol as Test A, CellTiter-Glo
EXPERIMENTAL_READOUT: CC50 at 5 days (nM)

[[record]]
compound = "NC(=O)c1cc(-c2cccnc2[C@H](Cc2cc(F)cc(F)c2)NC(=O)Cn2nc(C(F)(F)F)c3c2CC(O)C3)ccc1F (stereo partly shown) [Example 265]"
unit_abbreviation = "nM"
operator_symbol = ">"
value_observed = 53200

[[record]]
compound = "CNCc1cn(CC(=O)N[C@@H](Cc2cc(F)cc(F)c2)c2ncccc2-c2ccc(F)c(C(N)=O)c2)nc1C(F)(F)F [Example 333]"
unit_abbreviation = "nM"
operator_symbol = ">"
value_observed = 53200

[[record]]
compound = "NC(=O)c1cc(-c2cccnc2[C@H](Cc2cc(F)cc(F)c2)NC(=O)Cn2nc(C(F)(F)F)c3c2CSC3)ccc1F [Example 189D]"
unit_abbreviation = "nM"
operator_symbol = "="
value_observed = 23300

[[record]]
compound = "Cn1cc(-c2cccnc2[C@H](Cc2cc(F)cc(F)c2)NC(=O)Cc2c[nH]c3ccc(F)cc23)cn1 [Example 440]"
unit_abbreviation = "nM"
operator_symbol = "="
value_observed = 21700

[[record]]
compound = "Cc1ccccc1-c1cccnc1[C@H](Cc1cccc(F)c1)NC(=O)Cc1c[nH]c2ccc(O)cc12 [Example 24]"
unit_abbreviation = "nM"
operator_symbol = "="
value_observed = 24800

[[record]]
compound = "CCOc1nn(CC(=O)N[C@@H](Cc2cc(F)cc(F)c2)c2ncccc2-c2ccc(F)c(C(N)=O)c2)c2c1CCCC2 [Example 179C]"
unit_abbreviation = "nM"
operator_symbol = "="
value_observed = 22300

[[record]]
compound = "O=C(Cc1c[nH]c2ccc(F)cc12)N[C@@H](Cc1cc(F)cc(F)c1)c1ncccc1-c1ccc(Cl)c(F)c1 [Example 434]"
unit_abbreviation = "nM"
operator_symbol = "="
value_observed = 12300

